Listed here are binders together with their documented IL2RB Blocking (HTRF signal).
target.under.test: T1, human IL-2 (human, UniProt P60568 21-153, biotin label in the IL2RB blocking assay)
T1 construct: also called biotin-labeled IL-2 (Acro Biosystems IL2-H82E4)
assay.protocol: HTRF, IL-2:Fc-IL2RB
measurement.kind: IL2RB Blocking (HTRF signal)

[[record]]
binder = "PD1-IL2-R02-C03 (scFv, cell-free expressed, V5-tagged) scFv: QVQLVQSGAEVKKPGASVKVSCKASGYTFPRYHIHWVRQAPGQGLEWMGMINPSGGTTTYAQKFQGRVTMTRDTSTSTVYMELSSLRSEDTAVYYCARDTGLGYYYGSGDFDYWGQGTLVTVSSASGGGGSGGGGSGGGGSHASDIQMTQSPSSLSASVGDRVTITCRASQSISSWLAWYQQKPGKAPKLLIYAASSLQSGVPSRFSGSGSGTDFTLTISSLQPEDFATYYCQQSHSFPLTFGGGTKVEIK"
assay_value = 1210

[[record]]
binder = "PD1-IL2-R02-A08 (scFv) scFv: QVQLVQSGAEVKKPGASVKVSCKVSGYTFTSYDINWVRQAPGQGLEWMGWINPNSGDTGYAQKFQGRVTMTRDTSTSTVYMELSSLRSEDTAVYYCARDTGLGYYYGSGDFDYWGQGTLVTVSSASGGGGSGGGGSGGGGSHASDIQMTQSPSSLSASVGDRVTITCQASQDIHNYLNWYQQKPGKAPKLLIYDVSNLETGVPSRFSGSGSGTDFTLTISSLQPEDFATYYCQQAISFPLTFGGGTKVEIK"
assay_value = 1610

[[record]]
binder = "PD1-IL2-R07-A04 (scFv) scFv: QVQLVQSGAEVKKPGASVKVSCKASGYTFTDYYMHWVRQAPGQGLEWMGIINPRAGYTSYALKFQGRVTMTRDTSTSTVYMELSSLRSEDTAVYYCTSGMDVWGQGTLVTVSSASGGGGSGGGGSGGGGSHASDIQMTQSPSSLSASVGDRVTITCRASQSISTWLAWYQQKPGKAPKLLIYAASSLQSGVPSRFSGSGSGTDFTLTISSLQPEDFATYYCQQSYSFPVTFGQGTKVEIK"
assay_value = 1610

